Data credit: paper PMC11281344

A short record of CC50 observed with BHK-21 cells follows.

| smiles string | CC50 |
| --- | --- |
| C[C@H]1O[C@@H](O[C@H]2CC[C@@]3(C)[C@@H](CC[C@]4(C)[C@@H]3C=CC3=C5CC(C)(C)CC[C@]5(CO)[C@H](O)C[C@]34C)[C@]2(C)CO)[C@H](O)[C@@H](O[C@@H]2O[C@H](CO)[C@@H](O)[C@H](O)[C@H]2O)[C@H]1O | > 500 µM |

In: # input molecule: CC(=O)O[C@@]12CO[C@@H]1C[C@H](O)[C@@]1(C)C(=O)[C@H](O)C3=C(C)[C@@H](O)C[C@@](O)([C@@H](OC(=O)c4ccccc4)[C@H]21)C3(C)C ; wanted: its CC50
Out: > 500 µM

In: Field entry: CC(=O)O[C@H]1[C@H]2[C@@H](OC(=O)Cc3ccccc3)[C@@H](C)C[C@]2(OC(C)=O)C(=O)/C(C)=C/[C@@H]2[C@H](CC[C@@]13CO3)C2(C)C
Out: > 500 µM
